# testedSystem: PrfA A218G (Listeria monocytogenes, UniProt P22262 1-237, A218G)
# measurementNotes: SPR
# particulars: protein: recombinant; tags: His6 removed by TEV, leaves N-terminal GA; chain copies: 2; label: 5'-biotin on strand 1; blunt
We begin with a simple list: items and their reported Kd.
reportedProperty: Kd (nM)

INSERT INTO assay_data (binder, unitsofmeasure, obsvalue) VALUES
  ('hly promoter 40 bp (dsDNA) DNA 1: CTTTTATGTTGAGGCATTAACATTTGTTAACGACGATAAA DNA 2: TTTATCGTCGTTAACAAATGTTAATGCCTCAACATAAAAG', 'nM', 4),
  ('hpt promoter 40 bp (dsDNA) DNA 1: TTTTGTTTTCTGCATGATAACAAGTGTTAATGACGGAAAG DNA 2: CTTTCCGTCATTAACACTTGTTATCATGCAGAAAACAAAA', 'nM', 55),
  ('actA promoter 40 bp (dsDNA) DNA 1: AGTTGGGGTTAACTGATTAACAAATGTTAGAGAAAAATTA DNA 2: TAATTTTTCTCTAACATTTGTTAATCAGTTAACCCCAACT', 'nM', 27);
